Source listed as patent US20260062412A1.

- Target: MYT1 protein (Homo sapiens (Human))
- Procedure details: Test for binding to ATP binding site of MYT1 (Kinase Tracer 178 / Eu-Anti-GST antibody TR-FRET)
- Assay context: ATP binding site of MYT1, 30 minutes at room temperature
Entries annotated with measured IC50
Readout type: IC50 (nM)

[
  {
    "Molecule": "Nc1c(-c2ccnc3[nH]ncc23)c2cc(C3CC3)c3ncccc3c2[nH]c1=O [Compound C82]",
    "Uom": "nM",
    "Recorded result": 11
  },
  {
    "Molecule": "Nc1c(-c2ccc(Cl)c3[nH]ncc23)c2ccc3ccccc3c2[nH]c1=O [Compound B44]",
    "Uom": "nM",
    "Recorded result": 14
  },
  {
    "Molecule": "CC(C)CCc1cc2c(-c3ccc(F)c4[nH]ncc34)c(N)c(=O)[nH]c2c2cccnc12 [Compound C107]",
    "Uom": "nM",
    "Recorded result": 8.1
  },
  {
    "Molecule": "Nc1c(-c2cccc(O)c2)c2cc(C3CC3)ccc2[nH]c1=O [Compound A65]",
    "Uom": "nM",
    "Recorded result": 190
  },
  {
    "Molecule": "CN1CCN(c2cc3c(-c4ccc(F)c5[nH]ncc45)c(N)c(=O)[nH]c3c3ncccc23)CC1 [Compound D6]",
    "Uom": "nM",
    "Recorded result": 2.1
  },
  {
    "Molecule": "Nc1c(-c2ccc(F)c3[nH]ncc23)c2cc(CC(F)(F)F)c3ncccc3c2[nH]c1=O [Compound C165]",
    "Uom": "nM",
    "Recorded result": 7.1
  },
  {
    "Molecule": "Nc1c(-c2cc(F)c(F)c3[nH]ncc23)c2cc(OCC3CC3)c3ncccc3c2[nH]c1=O [Compound C70]",
    "Uom": "nM",
    "Recorded result": 1.1
  },
  {
    "Molecule": "Nc1c(-c2cc[nH]c(=O)c2)c2cc(Cl)ccc2[nH]c1=O [Compound A68]",
    "Uom": "nM",
    "Recorded result": 8000
  },
  {
    "Molecule": "CC(C)Nc1cc2c(-c3ccc(F)c4[nH]ncc34)c(N)c(=O)[nH]c2c2nccnc12 [Compound G9]",
    "Uom": "nM",
    "Recorded result": 4.4
  },
  {
    "Molecule": "Nc1c(-c2ccc(F)c3[nH]ncc23)c2cc(Br)c3cnccc3c2[nH]c1=O [Compound P3]",
    "Uom": "nM",
    "Recorded result": 12
  },
  {
    "Molecule": "Nc1c(-c2ccc(F)c3[nH]ncc23)c2cc(OC(F)(F)F)c3ncccc3c2[nH]c1=O [Compound C188]",
    "Uom": "nM",
    "Recorded result": 4.1
  },
  {
    "Molecule": "Nc1c(-c2ccc(Cl)c3[nH]ncc23)c2cc(C3CCC3)c3ccccc3c2[nH]c1=O [Compound B39]",
    "Uom": "nM",
    "Recorded result": 10
  },
  {
    "Molecule": "Cn1cc(-c2cc3c(-c4ccc(F)c5[nH]ncc45)c(N)c(=O)[nH]c3c3cccnc23)cn1 [Compound C88]",
    "Uom": "nM",
    "Recorded result": 4.4
  },
  {
    "Molecule": "Nc1c(-c2cc(F)c(F)c3[nH]ncc23)c2cc(OC(F)F)c3ncccc3c2[nH]c1=O [Compound C205]",
    "Uom": "nM",
    "Recorded result": 3.4
  },
  {
    "Molecule": "Nc1c(-c2ccc(Cl)c3[nH]ncc23)c2cc(OC3CCC3)c(Cl)cc2[nH]c1=O [Compound A10]",
    "Uom": "nM",
    "Recorded result": 4.3
  },
  {
    "Molecule": "Nc1c(-c2cc(F)c(F)c3[nH]ncc23)c2cc(O[C@H]3C[C@H](F)C3)c3ncccc3c2[nH]c1=O [Compound C210]",
    "Uom": "nM",
    "Recorded result": 1.3
  }
]

###

Below, each entry is listed with its recorded pIC50.
- Target: MYT1 protein (Homo sapiens (Human), UniProt Q99640)
- Sequence (Q99640 whole entry): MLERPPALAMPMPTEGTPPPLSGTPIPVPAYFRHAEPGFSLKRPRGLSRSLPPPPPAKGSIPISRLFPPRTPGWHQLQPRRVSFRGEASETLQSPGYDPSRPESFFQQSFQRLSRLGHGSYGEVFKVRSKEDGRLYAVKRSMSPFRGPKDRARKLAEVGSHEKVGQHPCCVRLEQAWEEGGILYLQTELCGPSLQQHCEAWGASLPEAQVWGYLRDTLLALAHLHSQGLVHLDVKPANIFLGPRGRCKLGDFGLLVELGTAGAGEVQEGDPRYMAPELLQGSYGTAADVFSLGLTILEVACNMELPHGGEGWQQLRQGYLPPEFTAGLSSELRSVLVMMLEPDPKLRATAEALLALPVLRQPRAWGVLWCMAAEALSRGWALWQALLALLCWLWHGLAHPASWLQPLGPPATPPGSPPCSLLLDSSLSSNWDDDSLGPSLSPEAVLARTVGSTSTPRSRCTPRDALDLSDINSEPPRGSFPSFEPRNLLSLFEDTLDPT
- Procedure details: Test for binding to ATP binding site of MYT1 (Kinase Tracer 178 / Eu-Anti-GST antibody TR-FRET)
- Assay context: ATP binding site of MYT1, 30 minutes at room temperature
- Method: The binding capacity of each compound to the ATP binding site of MYT1 Kinase protein was evaluated. […] Thereafter, fluorescence wavelengths of 665 nm and 615 nm generated by irradiation with excitation light of 340 nm were detected using Envision (manufactured by PerkinElmer). The proportion of Tracer bound to MYT1 protein was calculated for every condition by dividing the intensity at the fluorescence wavelength of 665 nm by the intensity at the fluorescence wavelength of 615 nm.
pIC50: −log10 of the molar value.

[
  {
    "Compound": "N#C[C@H]1C[C@@H](Oc2cc3c(-c4ccc(F)c5[nH]ncc45)c(N)c(=O)[nH]c3c3cccnc23)C1 [Compound C33]",
    "Target": "MYT1 protein (Homo sapiens (Human), UniProt Q99640)",
    "pIC50": 8.46
  },
  {
    "Compound": "Nc1c(-c2ccc(Cl)c3[nH]ncc23)c2cc(C(=O)NC3CC3)ccc2[nH]c1=O [Compound A37]",
    "Target": "MYT1 protein (Homo sapiens (Human), UniProt Q99640)",
    "pIC50": 8.25
  },
  {
    "Compound": "Nc1c(-c2ccc(F)c3[nH]ncc23)c2cc(N3CCC(F)(F)C3)c3ncccc3c2[nH]c1=O [Compound C115]",
    "Target": "MYT1 protein (Homo sapiens (Human), UniProt Q99640)",
    "pIC50": 8.43
  },
  {
    "Compound": "Nc1c(-c2ccc(Cl)c3[nH]ncc23)c2cc(Cl)c3ncccc3c2[nH]c1=O [Compound C77]",
    "Target": "MYT1 protein (Homo sapiens (Human), UniProt Q99640)",
    "pIC50": 8.07
  },
  {
    "Compound": "Nc1c(-c2ccc(F)c3[nH]ncc23)c2cc(N3CC(F)(F)C3)c3ncccc3c2[nH]c1=O [Compound C123]",
    "Target": "MYT1 protein (Homo sapiens (Human), UniProt Q99640)",
    "pIC50": 8.47
  },
  {
    "Compound": "Nc1c(-c2ccc(F)c3[nH]ncc23)c2cc(OC[C@H]3CCCO3)c3ncccc3c2[nH]c1=O [Compound C35]",
    "Target": "MYT1 protein (Homo sapiens (Human), UniProt Q99640)",
    "pIC50": 8.36
  },
  {
    "Compound": "Nc1c(-c2ccc(F)c3[nH]ncc23)c2cc(Cl)ccc2[nH]c1=O [Compound A57]",
    "Target": "MYT1 protein (Homo sapiens (Human), UniProt Q99640)",
    "pIC50": 7.89
  },
  {
    "Compound": "COc1ccc2c(n1)c(OC(C)C)cc1c(-c3ccc(F)c4[nH]ncc34)c(N)c(=O)[nH]c12 [Compound T2]",
    "Target": "MYT1 protein (Homo sapiens (Human), UniProt Q99640)",
    "pIC50": 8.12
  },
  {
    "Compound": "Nc1c(-c2ccc(F)c3[nH]ncc23)c2cc(OC3CCC(F)(F)CC3)c3ncccc3c2[nH]c1=O [Compound C48]",
    "Target": "MYT1 protein (Homo sapiens (Human), UniProt Q99640)",
    "pIC50": 8.00
  },
  {
    "Compound": "CS(=O)(=O)Nc1cc2c(-c3ccc(F)c4[nH]ncc34)c(N)c(=O)[nH]c2c2cccnc12 [Compound C127]",
    "Target": "MYT1 protein (Homo sapiens (Human), UniProt Q99640)",
    "pIC50": 8.82
  },
  {
    "Compound": "Nc1c(-c2ccc(F)c3[nH]ncc23)c2cc(O[C@H]3C[C@@H](F)C3)c3nccnc3c2[nH]c1=O [Compound G17]",
    "Target": "MYT1 protein (Homo sapiens (Human), UniProt Q99640)",
    "pIC50": 9.07
  },
  {
    "Compound": "COc1cccc(-c2c(N)c(=O)[nH]c3c2ccc2ccccc23)c1 [Compound B1]",
    "Target": "MYT1 protein (Homo sapiens (Human), UniProt Q99640)",
    "pIC50": 5.25
  },
  {
    "Compound": "CC(C)Oc1cc2c(-c3ccc(Cl)c4[nH]ncc34)c(N)c(=O)[nH]c2cc1F [Compound A1]",
    "Target": "MYT1 protein (Homo sapiens (Human), UniProt Q99640)",
    "pIC50": 7.54
  },
  {
    "Compound": "COc1cc2c(-c3ccc(F)c4[nH]ncc34)c(N)c(=O)[nH]c2c2ncccc12 [Compound D18]",
    "Target": "MYT1 protein (Homo sapiens (Human), UniProt Q99640)",
    "pIC50": 9.60
  },
  {
    "Compound": "Nc1c(-c2ccc(F)c3[nH]ncc23)c2cc(C3CC3)c3cncnc3c2[nH]c1=O [Compound J3]",
    "Target": "MYT1 protein (Homo sapiens (Human), UniProt Q99640)",
    "pIC50": 8.46
  },
  {
    "Compound": "COc1cc2c(-c3ccc(F)c4[nH]ncc34)c(N)c(=O)[nH]c2c2nccnc12 [Compound G10]",
    "Target": "MYT1 protein (Homo sapiens (Human), UniProt Q99640)",
    "pIC50": 8.66
  }
]
